Below, each entry is listed with its recorded IC50.
- targetOrTestSystem: MAO-B (Homo sapiens)
- Construct: purchased Gentest-BD Biosciences 456284
- experimentDescription: Biochemical assay for MAO-B activity (FLINT, benzylamine/amplex red)
- conditionInfo: average of two or more tests; 30 min preincubation of enzyme and compound; read-out: MAOB PIC50 MEAN (converted)
Report as a plain number; the unit µM is understood.

> print(dat)
                                   molecule  number
1  c1ccc([C@@H]2C[C@H]2NCC2CCCCC2)cc1 (relative stereo) [Example 7]   0.398
2  Cc1noc(C)c1S(=O)(=O)N1CCC(CN[C@@H]2C[C@H]2c2ccccc2)CC1 (relative stereo) [Example 100]    15.8
3  CC(C)(C)OC(=O)N1CCC(CN[C@@H]2C[C@H]2c2ccccc2)CC1 [Example 2]   0.631
4  O=S(=O)(c1ccccc1)N1CCC(CN[C@@H]2C[C@H]2c2ccccc2)CC1 (relative stereo) [Example 13]    5.01
5  O=C(Nc1ccccc1)N1CCC(CN[C@@H]2C[C@H]2c2ccccc2)CC1 (relative stereo) [Example 12]       2

Attention now shifts to the item below.
Query c1ccc(C2C[C@@H]2NCC2CCCNCC2)cc1 (stereo in doubt) [Example 22] yields IC50 of 100

====

- targetOrTestSystem: LSD1 (Homo sapiens, UniProt O60341)
- Construct: made in house
- experimentDescription: Biochemical assay for LSD-1 activity (luminescence, H3K4 dimethylated peptide substrate)
- conditionInfo: average of two or more tests; 30 min preincubation of enzyme and compound; read-out: LSD1 PIC50 MEAN (converted)
readoutType: IC50 (nM)
Report as a plain number; the unit nM is understood.

> print(dat)
                                   compound  resultunit  number
1  OCCN1CCC(CN[C@@H]2C[C@H]2c2ccccc2)CC1 (relative stereo) [Example 11]          nM    12.6

Query O=S(=O)(c1ccccc1)N1CCC(CN[C@@H]2C[C@H]2c2ccccc2)CC1 (relative stereo) [Example 13] yields IC50 of 50.1

Query c1ccc(C2C[C@@H]2NCC2CNCCO2)cc1 (stereo in doubt) [Example 25] yields IC50 of 20

====

- targetOrTestSystem: MAO-B (Homo sapiens, UniProt P27338)
- Construct: purchased Gentest-BD Biosciences 456284
- Sequence (P27338 whole entry): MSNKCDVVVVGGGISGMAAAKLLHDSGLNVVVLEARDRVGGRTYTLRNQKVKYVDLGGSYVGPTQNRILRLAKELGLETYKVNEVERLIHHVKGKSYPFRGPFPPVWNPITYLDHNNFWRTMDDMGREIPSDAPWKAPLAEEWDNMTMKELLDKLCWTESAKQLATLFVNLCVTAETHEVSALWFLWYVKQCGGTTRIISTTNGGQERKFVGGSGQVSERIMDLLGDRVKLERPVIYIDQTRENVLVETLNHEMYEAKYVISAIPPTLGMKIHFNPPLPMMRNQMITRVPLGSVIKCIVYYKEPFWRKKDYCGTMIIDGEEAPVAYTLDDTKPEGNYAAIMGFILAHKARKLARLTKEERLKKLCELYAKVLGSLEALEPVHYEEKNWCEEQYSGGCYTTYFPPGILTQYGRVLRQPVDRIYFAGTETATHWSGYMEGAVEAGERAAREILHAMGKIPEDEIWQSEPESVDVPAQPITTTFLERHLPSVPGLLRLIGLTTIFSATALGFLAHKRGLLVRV
- experimentDescription: Biochemical assay for MAO-B activity (FLINT, benzylamine/amplex red)
- conditionInfo: average of two or more tests; 30 min preincubation of enzyme and compound; read-out: MAOB PIC50 MEAN (converted)
Counter-ions that a name gives are not always drawn.
readoutType: IC50 (µM)
Report as a plain number; the unit µM is understood.

The examples below pair each entry with its known result.
> print(dat)
                                   compound  number
1  CC(C)(C)OC(=O)N1CCC(CN[C@H]2C[C@@H]2c2ccccc2)CC1    7.94
2  O=S(=O)(Nc1ccc([C@@H]2C[C@H]2NCC2CCNCC2)cc1)c1ccccc1 (relative stereo)    15.8
3  O=C(O)c1ccc(CCCN2CCC(CN[C@@H]3C[C@H]3c3ccccc3)CC2)cc1 [Example 30, HCl]    31.6
4  c1ccc(CN2CCC(CN[C@@H]3C[C@H]3c3ccccc3)CC2)cc1 (relative stereo)    25.1

Param item: Cc1cc(CN2CCC(CN[C@@H]3C[C@H]3c3ccccc3)CC2)no1 (relative stereo) ; param system: MAO-B (Homo sapiens, UniProt P27338); output IC50: 15.8
